Tested on: RPMI-8226
Assay: NCI 60 cell line five dose, Leukemia
Conditions: read-out: LC50, molar
readout: CC50

# input What value of measured CC50 is listed for C=C1C(=O)O[C@H]2[C@H]1CC/C(COC(=O)NCCCCCCCCNC(=O)OC/C1=C/CC[C@@]3(C)O[C@H]3[C@H]3OC(=O)C(=C)[C@@H]3CC1)=C\CC[C@@]1(C)O[C@@H]21 ?
# output > 100 µM

---

System: OVCAR-8
Experiment: NCI 60 cell line five dose, Ovarian Cancer
Conditions: read-out: LC50, molar
readout: CC50 (µM)
All answers are understood in µM, so give the number only.

# input Bench note: what CC50 did C=C1C(=O)O[C@H]2[C@H]1CC/C(COC(=O)NCCCCCCCCNC(=O)OC/C1=C/CC[C@@]3(C)O[C@H]3[C@H]3OC(=O)C(=C)[C@@H]3CC1)=C\CC[C@@]1(C)O[C@@H]21 show?
# output 6.77
